What z-score was measured for each of the following?
Assay: forskolin-driven CRE-LacZ activity in PC12 – cell-based, CRE-LacZ reporter, forskolin-stimulated, primary screen (AID 1146);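 also: PC12 cells with 6xCRE LacZ reporter stimulated by forskolin 10 µM; beta-galactosidase reporter signal reflecting CREB driven transcription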
Settings: luminescence, 4.5 h, higher = more signal, called active from +8 up or from −8 down
Give bare numbers.

Short answer for `COC(=O)[C@@]1(Cc2ccccc2)[C@H]2c3cc(C(=O)N(C)C)n(Cc4ccc(C)o4)c3C[C@H]2CN1C(=O)c1ccccc1` : z-score was 0.2

Short answer for `O=C(NCCN1CCOCC1)[C@@H]1c2ccccc2C(=O)N(Cc2ccccc2Cl)[C@H]1c1ccc(CO)cc1` : z-score was -0.6

Short answer for `COc1cccc(C)c1NC(=O)O[C@H]1[C@H](OC(=O)Nc2ccc3c(c2)OCO3)[C@@H](OC(=O)Nc2ccc3c(c2)OCO3)[C@@H](OC)O[C@@H]1CO` : z-score was -0.424

Short answer for CC(CO)N1C(=O)[C@]2(C)C3C(=O)OCCC/C=C\[C@H]3OC23C=CCN(c2ccc(Cl)cc2)C(=O)[C@@H]13 (some centres not stated) : z-score was -0.592

Short answer for `CCOC(=O)C[C@H]1[C@H](OC(=O)c2ccc(C(=O)c3ccccc3)cc2)[C@@H](NC(=O)C2CCCCC2)c2cc(OCCCO)ccc2N1C(=O)c1ccc2ccccc2n1` : z-score was -0.825

Short answer for `C#Cc1cc2ccccc2oc1=O` : z-score was 6.19

---
Short answer for `[N-]=[N+]=NCc1ccccc1C[C@@]1(C(N)=O)N=C(c2ccc(OCCCO)cc2)O[C@@H]1c1ccccc1` : z-score was -0.0576

* * *

Assay: forskolin-driven CRE-LacZ activity in PC12 – cell-based, CRE-LacZ reporter, forskolin-stimulated, primary screen (AID 1146);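 also: PC12 cells with 6xCRE LacZ reporter stimulated by forskolin 10 µM; beta-galactosidase reporter signal reflecting CREB driven transcription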
Conditions: luminescence, 4.5 h, higher = more signal, called active from +8 up or from −8 down
Classify as follows. Reported z-score greater than or equal to -0.7: criterion met. Reported z-score below: criterion not met.

Input: In plain terms: is recorded z-score at least -0.7 for Cc1ccc(C(C)CC(O)C2C=CC3C(=O)N(c4ccccc4)C(=O)C3N2Nc2ccccc2)o1 (stereo unspecified) ?
Output: criterion met

Input: In plain terms: is recorded z-score at least -0.7 for `CC(=O)NCCCC[C@@H]1NC(=O)[C@@H]2C[C@H](C(=O)NCCCCCN)[C@H](c3cccc(OCCO)c3)N2C1=O` ?
Output: criterion not met

Input: In plain terms: is recorded z-score at least -0.7 for `COc1ccc([Si](C)(C)[C@@H]2[C@@H](CC(=O)N3CCC[C@H]3CO)O[C@]3(C(=O)N(Cc4cccc(N5C(=O)COc6ccccc65)c4)c4ccccc43)[C@H]2C)cc1` ?
Output: criterion met

Input: In plain terms: is recorded z-score at least -0.7 for `CCOC(=O)C[C@H]1[C@H](OC(=O)c2cc3ccccc3oc2=O)[C@@H](NC(=O)c2ccc3ccccc3n2)c2cc(OCCCO)ccc2N1C(=O)Cc1ccc(OC)cc1` ?
Output: criterion not met

---
Input: In plain terms: is recorded z-score at least -0.7 for `C=CCOC(=O)[C@@H]1[C@H]2C(=O)O[C@H](c3ccccc3)[C@H](c3ccccc3)N2[C@H](c2ccc(OCCOC(=O)[C@@H]3C[C@@H]4C(=O)N[C@@H](CCCC[N+](C)(C)C)C(=O)N4[C@@H]3c3ccc(O)cc3)cc2)[C@@]12C(=O)Nc1ccc(I)cc12` ?
Output: criterion met

Input: In plain terms: is recorded z-score at least -0.7 for O=C1CS(=O)(=O)C(c2cccc([N+](=O)[O-])c2)N1c1ccccc1 (stereo unspecified) ?
Output: criterion not met

* * *

What z-score was measured for each of the following?
Test: JC-1 mitochondrial signal, unstimulated adipocytes – cell-based, JC-1 fluorescence, 3T3-L1 adipocytes, 24 h, 100 nL compound, profiling panel (AID 1168); also: test concentration not given here
Conditions: JC-1 mitochondrial fluorescence, higher = more signal, called active from +8 up or from −8 down
Activity calls are given as the source filed them.

Short answer for `NC(=O)NCC#Cc1ccc2c(c1)[C@]1(C(=O)N2)[C@H](c2ccccc2OCCO)N2[C@H](c3ccccc3)[C@H](c3ccccc3)OC(=O)[C@H]2[C@@H]1C(=O)NC[C@H](O)c1ccccc1` : z-score was 0.43 (inactive)

Short answer for `C=C(/C(=C/C[C@H](OC(=O)c1ccncc1)c1ccc(CO)o1)c1cnc2ccccc2c1)C(C)C` : z-score was 0.0957 (inactive)

Short answer for `CCCC=C(CCC)[C@@H](NC(=O)c1cccs1)c1ccc(C(=O)OC)cc1` : z-score was -0.0911 (inactive)

Short answer for O=C(C1N=C(c2ccc(OCCCO)cc2)N(c2ccccc2)O1)N1CCCCC1 (stereo not drawn) : z-score was -0.716 (inactive)

Short answer for `O=C(O)[C@@H]1[C@@H]2C(=O)N(c3ccccc3)C(=O)[C@@H]2C[C@@H]1Sc1ccccc1` : z-score was -0.867 (inactive)

Short answer for `CCOC(=O)C[C@H]1[C@H](OC(=O)c2cc3ccccc3oc2=O)[C@@H](NC(=O)c2ccccc2)c2cc(OCCCO)ccc2N1C(=O)c1ccccc1` : z-score was 0.434 (inactive)

Short answer for Cc1ccccc1C(O)C1C=CC2C(=O)NC(=O)C2N1Nc1ccccn1 (stereo not drawn) : z-score was -0.654 (inactive)

Moving on to another compound below.
Short answer for `CC[C@@H]1C=C(C(=O)O)[C@H](c2ccc(C#N)cc2)N1S(=O)(=O)c1ccc(C)cc1` : z-score was -0.552 (inactive)

* * *

Molecular target: Torsin-1A-interacting protein 2 (Homo sapiens) (UniProt Q8NFQ8)
Sequence (Q8NFQ8 whole entry, looked up): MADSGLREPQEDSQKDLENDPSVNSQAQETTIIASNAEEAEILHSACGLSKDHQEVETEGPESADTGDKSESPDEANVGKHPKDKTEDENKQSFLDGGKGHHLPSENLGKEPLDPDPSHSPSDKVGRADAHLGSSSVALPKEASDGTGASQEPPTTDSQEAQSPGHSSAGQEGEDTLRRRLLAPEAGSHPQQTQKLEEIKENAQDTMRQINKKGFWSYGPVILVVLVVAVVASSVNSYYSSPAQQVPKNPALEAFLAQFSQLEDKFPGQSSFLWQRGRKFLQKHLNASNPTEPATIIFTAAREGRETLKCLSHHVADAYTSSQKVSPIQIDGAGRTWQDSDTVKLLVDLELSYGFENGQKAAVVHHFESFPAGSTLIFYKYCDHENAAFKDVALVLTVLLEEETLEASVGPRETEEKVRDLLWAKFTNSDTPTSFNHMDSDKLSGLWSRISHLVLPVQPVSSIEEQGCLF
Experiment: small molecules binding lysate-expressed LULL1 – cell lysate, human LULL1 lysate, 635/667 nm fluorescence, primary screen (AID 1092);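 also: probe is lysate of COS7 cells overexpressing human LULL1; score merges per-feature 667 nm fluorescence with signal-to-noise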
Settings: small-molecule microarray, hLULL1 lysate binding, 635 nm fluorescence; higher = more signal
What composite z-score was measured for each of the following?
Give bare numbers.

The examples below pair each entry with its known result.
# lookup: COc1cc2c(cc1O)C(c1ccc(CN3CCCC3)cc1)N(Cc1cc3c(cc1Br)OCO3)CC2 (centres undefined) on Torsin-1A-interacting protein 2 (Homo sapiens) (UniProt Q8NFQ8), composite z-score = 0.502

# lookup: C=CCC(OC(C)=O)[C@@H]1[C@@H](N(Cc2ccc(-c3cccc(C(F)(F)F)c3)o2)C(=O)Cc2ccc(OC)cc2)c2cc(OCCCO)ccc2N1C(=O)c1ccc(-c2ccccc2)cc1 (some centres undefined) on Torsin-1A-interacting protein 2 (Homo sapiens) (UniProt Q8NFQ8), composite z-score = 0.442

# lookup: `COCCCNC(=O)[C@@]1(Sc2ccc(C)cc2)CC(=O)N(C2Cc3ccccc3C2)[C@@H]1c1ccc(CO)cc1` on Torsin-1A-interacting protein 2 (Homo sapiens) (UniProt Q8NFQ8), composite z-score = 3.11

---
# lookup: CCCCN1CC=CC23O[C@@H]4/C=C\CCC(C)OC(=O)C4[C@H]2C(=O)N(CCCO)[C@@H]3C1=O (some centres undefined) on Torsin-1A-interacting protein 2 (Homo sapiens) (UniProt Q8NFQ8), composite z-score = 0.879

* * *

Assay: optical density shifts of acrAB sulA E. coli – strain DRC41, OD650, 48 h, E. coli filamentation inducer project, primary screen (AID 1152);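 also: E. coli MC1000 strain DRC41 lacking acrAB efflux pump and sulA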
Settings: higher = more signal, called active from +8 up or from −8 down
What z-score was measured for each of the following?
Numbers only.

Short answer for `CCCC#C[Si](O[C@H](CC)c1cn([C@H](C)c2ccccc2)nn1)(C(C)C)C(C)C` : z-score was 2.53

Short answer for `NC(=O)[C@H]1[C@@H]2C(=O)O[C@@H](c3ccccc3)[C@@H](c3ccccc3)N2[C@@H](c2ccc(OCCO)cc2)[C@]12C(=O)Nc1ccc(C#CCCO)cc12` : z-score was -0.628

Short answer for `COC(=O)[C@]1(CCS(=O)(=O)c2ccccc2)N=C(c2ccc(OCCCO)cc2)O[C@@H]1c1ccccc1N=[N+]=[N-]` : z-score was -1.59

Short answer for `COc1ccc(C(=O)Nc2ccc(CN3C(=O)[C@]4(O[C@H](CC(=O)N5Cc6ccccc6C[C@H]5CO)[C@@H]([Si](C)(C)c5ccc(OC)cc5)[C@@H]4C)c4ccccc43)cc2)cc1` : z-score was -0.298

Short answer for CC(CO)N1C(=O)[C@@H]2[C@H]3C(=O)OCC=C[C@H]3OC23C=CCN(Cn2nnc4ccccc42)C(=O)[C@@H]13 (stereo not given in full) : z-score was -0.597

Short answer for COc1cc(OC)c(C(O)C2C=CC3C(=O)N(Cc4ccccc4)C(=O)C3N2n2cnnc2)cc1Br (stereo not given) : z-score was -1.21

Short answer for CCC1=C2CN(Cc3ccccc3)[C@@H](C(=O)Cc3ccccc3)C2C=CCC1 (stereo not given in full) : z-score was 0.806

Short answer for `COC(=O)[C@@]1(Cc2ccc(F)cc2)[C@H]2c3cc(C(=O)N4CCCC4)n(Cc4ccc(C)c(F)c4F)c3C[C@H]2CN1C(=O)c1ccccc1` : z-score was -1.31

Short answer for CCCCC(O)C1C=CC2C(=O)N(C)C(=O)C2N1N(c1ccccc1)c1ccccc1 (stereo not given) : z-score was -2.15

Short answer for `C=CCNC(=O)[C@@H]1[C@H]2C(=O)O[C@H](c3ccccc3)[C@H](c3ccccc3)N2[C@H](c2ccc(O)cc2)[C@@]12C(=O)N(C(=O)OCCOC)c1ccc(C#CC3=CCCCC3)cc12` : z-score was -1.1

Parameter requested: z-score. Apply to each item below.
1. CCOC(=O)C1=CC[C@@H](c2ccccc2F)N(S(=O)(=O)c2ccc(C)cc2)[C@H]1c1ccccc1
2. CCCCC=C[C@@H](NC(=O)OCc1ccccc1Cl)c1ccccc1
3. O=C1OCCC/C=C\[C@H]2OC34C=CCN(c5ccc6ccccc6c5)C(=O)[C@H]3N(CCO)C(=O)[C@@H]4C12 (stereo not given in full)
4. CCOC(=O)[C@@H]1CCCCN1C(=O)C(=O)OC
5. CC1CC/C=C\[C@H]2OC34C=CCN(c5ccc(Cl)cc5)C(=O)[C@H]3N(C(C)CO)C(=O)[C@]4(C)C2C(=O)O1 (stereo not given in full)

Output:
-1.33
-2.07
-0.067
-0.446
0.346

Provenance of the data: PubChem BioAssay
